Catalogue of molecules with associated melting point

molecule: O=C1Oc2ccc3ccccc3c2CC1C(=O)c1cccc(C(F)(F)F)c1 (centres undefined)
melting point: 192 to 193 °C

molecule: CCCCN(C(=O)c1cc(C(C)(C)C)c(OC(=O)c2cc(C(C)(C)C)c(O)c(C(C)(C)C)c2)c(C(C)(C)C)c1)C1CC(C)(C)N(OC(C)=O)C(C)(C)C1
melting point: 230 to 232 °C

molecule: CC(C(=O)O)c1ccc2cc(OCC=C(Cl)Cl)ccc2c1 (centres undefined)
melting point: 107 to 109 °C

molecule: COc1ccc(C(=O)OCc2ccc(C=O)cc2)cc1C(C)(C)C
melting point: 75 to 76 °C

molecule: CNCCCN(C)c1ccc2c(C(=O)NCC34CC5CC(CC(C5)C3)C4)c(Cl)ccc2n1
melting point: 195 to 200 °C

molecule: CCCCCCOc1ccc(-n2cc(C(=O)O)cn2)cc1C#N
melting point: 164 to 165 °C

molecule: CCOC(=O)C(c1c(Cl)ccc(Cl)c1Cl)N(C(=O)CCl)c1ccc(Br)cc1 (centres undefined)
melting point: 141 °C

molecule: CC(C)(C)OC(=O)NNC(=O)c1ccc2ncsc2c1
melting point: 128 to 129 °C

molecule: CS(=O)(=O)N1CCC(Nc2nc(Nc3ccc(F)c(Cl)c3)nc(OCC(F)(F)F)n2)C1 (centres undefined)
melting point: 199 to 200 °C
